# Lookup of reported residual activity keyed by entry
- Target: PRKCB2 (human) (UniProt P05771)
- Sequence (P05771 whole entry, looked up): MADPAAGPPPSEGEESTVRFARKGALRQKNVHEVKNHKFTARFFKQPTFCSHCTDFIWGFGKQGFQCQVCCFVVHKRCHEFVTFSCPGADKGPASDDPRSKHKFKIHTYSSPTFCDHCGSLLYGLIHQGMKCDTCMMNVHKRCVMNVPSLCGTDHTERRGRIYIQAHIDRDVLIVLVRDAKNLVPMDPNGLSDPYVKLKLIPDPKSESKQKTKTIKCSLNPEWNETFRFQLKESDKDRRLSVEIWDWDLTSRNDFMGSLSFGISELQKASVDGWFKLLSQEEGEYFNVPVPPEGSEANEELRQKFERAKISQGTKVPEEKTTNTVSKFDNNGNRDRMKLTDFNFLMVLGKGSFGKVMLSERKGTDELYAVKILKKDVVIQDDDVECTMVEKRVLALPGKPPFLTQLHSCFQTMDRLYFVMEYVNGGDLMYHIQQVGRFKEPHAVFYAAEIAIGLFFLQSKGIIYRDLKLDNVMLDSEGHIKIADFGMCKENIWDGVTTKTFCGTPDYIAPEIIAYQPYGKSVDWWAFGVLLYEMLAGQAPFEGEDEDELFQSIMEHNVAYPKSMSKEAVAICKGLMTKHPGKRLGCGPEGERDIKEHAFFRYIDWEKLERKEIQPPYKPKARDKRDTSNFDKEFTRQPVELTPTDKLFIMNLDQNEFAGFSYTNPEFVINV
- Test summary: radiometric filter-binding kinase assay, Kinase HotSpot
- Measurement setup: compound 0.5 µM; ATP 10 µM
Reported property: residual activity (%)

- Chem smiles: "COc1cc2ncnc(N3CCN(C(=O)Nc4ccc(Oc5ccccc5)cc4)CC3)c2cc1OC"
  Reported property: "residual activity"
  Units label: "%"
  Test result: 102
- Chem smiles: "COc1ccc(OC)c2c(=S)c3ccccc3[nH]c12"
  Reported property: "residual activity"
  Units label: "%"
  Test result: 106
- Chem smiles: "COc1cc2ncc(-c3ccccc3)nc2cc1OC"
  Reported property: "residual activity"
  Units label: "%"
  Test result: 88.8
- Chem smiles: "CCn1cnc2c(Nc3cccc(Cl)c3)nc(N[C@@H]3CCCC[C@@H]3N)nc21"
  Reported property: "residual activity"
  Units label: "%"
  Test result: 79.4
- Chem smiles: "O=C(CCCc1ccc(-c2ccccc2F)cc1)Nc1ccc(O)cc1"
  Reported property: "residual activity"
  Units label: "%"
  Test result: 102
- Chem smiles: "CC(C)c1nn(-c2c(Cl)cccc2Cl)c2nc(Cc3ccc(OCCO)cc3)nc(O)c12"
  Reported property: "residual activity"
  Units label: "%"
  Test result: 96.7
